From: DBAASP

- Tested on: Candida albicans NCPF 1467

chemical string: CC[C@H](C)[C@@H]1NC(=O)[C@H](CC(C)C)NC(=O)[C@@H](NC(=O)[C@H](Cc2ccccc2)NC(=O)[C@H](CC(C)C)NC(=O)[C@H](CCCCN)NC(=O)[C@@H]2CCCN2C(=O)[C@H](CC(C)C)NC(=O)[C@H](C)NC(=O)[C@H](C)NC(=O)[C@H](CC(C)C)NC(=O)[C@H](C)NC(=O)[C@H](CC(C)C)NC(=O)[C@H](CO)NC(=O)[C@H](CC(C)C)NC(=O)[C@@H](N)Cc2ccccc2)CSSC[C@@H](C(=O)O)NC(=O)[C@H](CCCCN)NC(=O)[C@H](CCCCN)NC(=O)[C@H](Cc2ccccc2)NC1=O
MIC: ≥ 32 µM

###

- Tested on: Pseudomonas aeruginosa ATCC 27853
- experiment description: ≥ marks a high value that may be exact or a test limit, other limits are often not marked, values filed in µg/mL are converted to µM
In this section, each of the compounds is paired with its reported MIC.
property measured: MIC

chemical string: CC[C@H](C)[C@H](NC(=O)[C@@H](N)CCCCN)C(=O)N[C@@H](CCCN=C(N)N)C(=O)N[C@H](C(=O)N[C@@H](CCCN=C(N)N)C(=O)N[C@@H](CC(C)C)C(=O)N[C@@H](CO)C(=O)N[C@@H](C)C(=O)O)C(C)C
property measured: MIC
result: 17 µM

chemical string: CC[C@H](C)[C@H](NC(=O)[C@H](CCCCN)NC(=O)[C@H](CCCCN)NC(=O)[C@H](C)NC(=O)[C@H](CC(C)C)NC(=O)[C@H](C)NC(=O)[C@H](C)NC(=O)[C@H](CC(C)C)NC(=O)[C@@H]1CCCN1C(=O)[C@H](CCCCN)NC(=O)[C@H](CC(C)C)NC(=O)[C@H](CC(N)=O)NC(=O)[C@@H](NC(=O)[C@H](CCCCN)NC(=O)CNC(=O)[C@H](CC(C)C)NC(=O)[C@H](CC(C)C)NC(=O)[C@H](Cc1ccc(O)cc1)NC(=O)CNC(=O)[C@H](C)N)[C@@H](C)CC)C(=O)N[C@@H](CC(C)C)C(N)=O
property measured: MIC
result: 58 µM

chemical string: CC[C@H](C)[C@H](NC(=O)[C@H](CCCN=C(N)N)NC(=O)[C@H](CCCN=C(N)N)NC(=O)[C@H](Cc1ccccc1)NC(=O)[C@H](CC(C)C)NC(=O)[C@H](CCCN=C(N)N)NC(=O)[C@@H](N)CCCN=C(N)N)C(=O)N[C@@H](CC(C)C)C(=O)N[C@@H](CCCN=C(N)N)C(=O)N[C@@H](Cc1c[nH]c2ccccc12)C(=O)N[C@@H](CC(C)C)C(N)=O
property measured: MIC
result: 1.5 µM

chemical string: CC(C)C[C@H](NC(=O)[C@H](CC(C)C)NC(=O)[C@H](CC(N)=O)NC(=O)[C@H](CCCCN)NC(=O)[C@H](CC(C)C)NC(=O)[C@H](CC(N)=O)NC(=O)[C@@H](N)C(C)C)C(=O)N[C@@H](CCCN=C(N)N)C(=O)O
property measured: MIC
result: 32 µM

chemical string: CC(C)C[C@H](NC(=O)[C@H](Cc1ccccc1)NC(=O)[C@@H](N)CCCCN)C(=O)N[C@@H](CCCCN)C(=O)N[C@@H](CCCCN)C(=O)N[C@@H](C)C(=O)N[C@@H](CCCCN)C(=O)N[C@@H](CCCCN)C(=O)N[C@@H](Cc1ccccc1)C(=O)NCC(=O)N[C@@H](CCCCN)C(=O)N[C@@H](C)C(N)=O
property measured: MIC
result: 367 µM

chemical string: CC[C@H](C)[C@H](NC(=O)[C@H](CCCCN)NC(=O)[C@H](CCCCN)NC(=O)[C@@H](NC(=O)[C@H](C)NC(=O)[C@H](CCC(=O)O)NC(=O)[C@H](Cc1cnc[nH]1)NC(=O)[C@@H](NC(=O)CNC(=O)[C@H](CCC(N)=O)NC(=O)[C@H](Cc1ccccc1)NC(=O)[C@@H](NC(=O)[C@H](CCCCN)NC(=O)[C@H](CCCCN)NC(=O)[C@H](CC(C)C)NC(=O)[C@H](C)NC(=O)[C@H](CC(N)=O)NC(=O)[C@@H](N)CC(C)C)C(C)C)[C@@H](C)CC)[C@@H](C)CC)C(N)=O
property measured: MIC
result: 4 µM

###

- Test system: Pseudomonas aeruginosa ATCC 27853
- experiment description: ≥ marks a high value that may be exact or a test limit, other limits are often not marked, values filed in µg/mL are converted to µM
Field: label. Allowed values: Yes (MIC < 2 µM) or No (MIC >= 2 µM).

compound: CC[C@H](C)[C@H](N)C(=O)N[C@@H](CC(N)=O)C(=O)N[C@@H](Cc1c[nH]c2ccccc12)C(=O)N[C@@H](CC(C)C)C(=O)N[C@@H](CCCCN)C(=O)N[C@@H](CC(C)C)C(=O)NCC(=O)N[C@@H](CCCCN)C(=O)N[C@@H](CCSC)C(=O)N[C@H](C(=O)N[C@H](C(=O)N[C@@H](CC(=O)O)C(=O)N[C@@H](C)C(=O)N[C@@H](CC(C)C)C(N)=O)[C@@H](C)CC)C(C)C [INWLKLGKMVIDAL]
assigned category: No

compound: CC[C@H](C)[C@@H]1NC(=O)CNC(=O)[C@H](CCCN=C(N)N)NC(=O)[C@H](Cc2ccc(O)cc2)NC(=O)[C@@H]2CSSC[C@H](NC1=O)C(=O)N[C@@H](Cc1ccc(O)cc1)C(=O)N[C@@H](CCCN=C(N)N)C(=O)N[C@@H](CCCN=C(N)N)C(=O)N[C@H](C(=O)N[C@@H](CCCN=C(N)N)C(=O)O)CSSC[C@H](NC(=O)[C@H](Cc1c[nH]c3ccccc13)NC(=O)[C@@H](N)CCCCN)C(=O)NCC(=O)N[C@@H](CCCN=C(N)N)C(=O)N[C@@H](C(C)C)C(=O)N2 [KWCGRVCYRGICYRRCR]
assigned category: Yes

compound: CC[C@H](C)[C@H](NC(=O)[C@H](CCCN=C(N)N)NC(=O)[C@H](C)NC(=O)[C@H](C)N)C(=O)N[C@H](C(=O)N[C@@H](CC(C)C)C(=O)N[C@@H](CCCN=C(N)N)C(=O)NCC(=O)N[C@@H](CCCN=C(N)N)C(=O)N[C@@H](Cc1ccccc1)C(=O)N[C@@H](CCCN=C(N)N)C(N)=O)[C@@H](C)CC [AARIILRGRFR]
assigned category: No

compound: CC[C@H](C)[C@H](NC(=O)[C@H](CCCN=C(N)N)NC(=O)[C@H](CCCCN)NC(=O)[C@H](C)NC(=O)[C@@H](NC(=O)[C@@H](N)CCCCN)[C@@H](C)CC)C(=O)N[C@@H](Cc1c[nH]c2ccccc12)C(=O)N[C@@H](CCCCN)C(=O)N[C@H](C(=O)N[C@@H](CC(C)C)C(=O)N[C@@H](CCCN=C(N)N)C(=O)N[C@@H](CCCN=C(N)N)C(=O)N[C@@H](CCCN=C(N)N)C(=O)N[C@@H](CC(C)C)C(N)=O)[C@@H](C)CC [KIAKRIWKILRRRL]
assigned category: No

compound: NCC(=O)N[C@@H](CCCN=C(N)N)C(=O)N[C@@H](Cc1c[nH]c2ccccc12)C(=O)N[C@@H](CCCN=C(N)N)C(=O)N[C@@H](Cc1c[nH]c2ccccc12)C(=O)N[C@@H](Cc1c[nH]c2ccccc12)C(=O)N[C@@H](Cc1c[nH]c2ccccc12)C(=O)N[C@@H](CCCN=C(N)N)C(=O)N[C@@H](Cc1c[nH]c2ccccc12)C(=O)N[C@@H](CCCN=C(N)N)C(=O)N[C@@H](Cc1c[nH]c2ccccc12)C(N)=O [GRWRWWWRWRW]
assigned category: No

compound: CC(=O)N[C@@H](CCCCN)C(=O)N[C@@H](Cc1ccccc1)C(=O)N[C@@H](CC(C)C)C(=O)N[C@@H](CCCCN)C(=O)N[C@@H](CC(C)C)C(=O)N[C@@H](CCCCN)C(=O)N[C@@H](Cc1c[nH]c2ccccc12)C(=O)N[C@@H](CC(C)C)C(=O)N[C@@H](CCCCN)C(=O)N[C@@H](CO)C(=O)N[C@@H](Cc1c[nH]c2ccccc12)C(=O)N[C@@H](CCCCN)C(=O)N[C@@H](CC(N)=O)C(=O)N[C@@H](Cc1ccccc1)C(=O)N[C@@H](CCCCN)C(N)=O [KFLKLKWLKSWKNFK]
assigned category: No

compound: CC[C@H](C)[C@@H]1NC(=O)CNC(=O)[C@H](CCCN=C(N)N)NC(=O)[C@H](Cc2ccc(O)cc2)NC(=O)[C@@H]2CSSC[C@H](NC1=O)C(=O)N[C@@H](Cc1ccc(O)cc1)C(=O)N[C@@H](CCCN=C(N)N)C(=O)N[C@@H](CCCN=C(N)N)C(=O)N[C@H](C(=O)N[C@@H](CCCN=C(N)N)C(=O)O)CSSC[C@H](NC(=O)[C@H](Cc1c[nH]c3ccccc13)NC(=O)[C@@H](N)CCCCN)C(=O)N[C@@H](C)C(=O)N[C@@H](CCCN=C(N)N)C(=O)N[C@@H](C(C)C)C(=O)N2 [KWCARVCYRGICYRRCR]
assigned category: Yes

compound: CC(C)C[C@H](NC(=O)CNC(=O)[C@H](Cc1c[nH]c2ccccc12)NC(=O)CNC(=O)[C@H](CC(C)C)NC(=O)[C@H](CC(C)C)NC(=O)[C@H](CCCCN)NC(=O)[C@@H](N)CCCCN)C(=O)N[C@@H](CC(C)C)C(=O)N[C@@H](CCCCN)C(=O)N[C@@H](CCCCN)C(N)=O [KKLLGWGLLKK]
assigned category: No

compound: CC[C@H](C)[C@H](NC(=O)CNC(=O)[C@@H](NC(=O)[C@H](CCCCN)NC(=O)[C@@H](NC(=O)[C@H](CCCCN)NC(=O)[C@H](CCCCN)NC(=O)[C@H](CC(=O)O)NC(=O)CNC(=O)[C@H](C)N)[C@@H](C)CC)[C@@H](C)CC)C(=O)N[C@@H](CC(N)=O)C(=O)NCC(=O)N[C@@H](Cc1ccccc1)C(=O)NCC(=O)N[C@@H](CCCN=C(N)N)C(=O)N[C@H](C(=O)NCC(=O)N[C@@H](CCCN=C(N)N)C(=O)N[C@@H](CC(C)C)C(=O)O)[C@@H](C)CC [AGDKKIKIGINGFGRIGRL]
assigned category: No
